EXPERIMENT SUMMARY: clinical
STUDY CONDITIONS: human, plasma, oral, 2 mg, AUC0 − 24, Mean (±SD), Sev (n = 3); dose normalized to 2 mg

| SAMPLE SMILES | UNIT SPEC | AUC(0-t) |
| --- | --- | --- |
| CC(=O)Nc1cccc(-n2c(=O)n(C3CC3)c(=O)c3c(Nc4ccc(I)cc4F)n(C)c(=O)c(C)c32)c1 | ng·h/mL | 240 |
